Values from paper PMC11345841

List of remaining binding at 1 µM values.
target: MET(Y1235D) (Homo sapiens, UniProt P08581, Y1235D); construct: purchased Eurofins DiscoverX KINOMEscan (scanTK); assay: KINOMEscan ScanTK; format: binding; details: @1000nM, read-out: %Control
Sequence (P08581 25-1390 Y1235D): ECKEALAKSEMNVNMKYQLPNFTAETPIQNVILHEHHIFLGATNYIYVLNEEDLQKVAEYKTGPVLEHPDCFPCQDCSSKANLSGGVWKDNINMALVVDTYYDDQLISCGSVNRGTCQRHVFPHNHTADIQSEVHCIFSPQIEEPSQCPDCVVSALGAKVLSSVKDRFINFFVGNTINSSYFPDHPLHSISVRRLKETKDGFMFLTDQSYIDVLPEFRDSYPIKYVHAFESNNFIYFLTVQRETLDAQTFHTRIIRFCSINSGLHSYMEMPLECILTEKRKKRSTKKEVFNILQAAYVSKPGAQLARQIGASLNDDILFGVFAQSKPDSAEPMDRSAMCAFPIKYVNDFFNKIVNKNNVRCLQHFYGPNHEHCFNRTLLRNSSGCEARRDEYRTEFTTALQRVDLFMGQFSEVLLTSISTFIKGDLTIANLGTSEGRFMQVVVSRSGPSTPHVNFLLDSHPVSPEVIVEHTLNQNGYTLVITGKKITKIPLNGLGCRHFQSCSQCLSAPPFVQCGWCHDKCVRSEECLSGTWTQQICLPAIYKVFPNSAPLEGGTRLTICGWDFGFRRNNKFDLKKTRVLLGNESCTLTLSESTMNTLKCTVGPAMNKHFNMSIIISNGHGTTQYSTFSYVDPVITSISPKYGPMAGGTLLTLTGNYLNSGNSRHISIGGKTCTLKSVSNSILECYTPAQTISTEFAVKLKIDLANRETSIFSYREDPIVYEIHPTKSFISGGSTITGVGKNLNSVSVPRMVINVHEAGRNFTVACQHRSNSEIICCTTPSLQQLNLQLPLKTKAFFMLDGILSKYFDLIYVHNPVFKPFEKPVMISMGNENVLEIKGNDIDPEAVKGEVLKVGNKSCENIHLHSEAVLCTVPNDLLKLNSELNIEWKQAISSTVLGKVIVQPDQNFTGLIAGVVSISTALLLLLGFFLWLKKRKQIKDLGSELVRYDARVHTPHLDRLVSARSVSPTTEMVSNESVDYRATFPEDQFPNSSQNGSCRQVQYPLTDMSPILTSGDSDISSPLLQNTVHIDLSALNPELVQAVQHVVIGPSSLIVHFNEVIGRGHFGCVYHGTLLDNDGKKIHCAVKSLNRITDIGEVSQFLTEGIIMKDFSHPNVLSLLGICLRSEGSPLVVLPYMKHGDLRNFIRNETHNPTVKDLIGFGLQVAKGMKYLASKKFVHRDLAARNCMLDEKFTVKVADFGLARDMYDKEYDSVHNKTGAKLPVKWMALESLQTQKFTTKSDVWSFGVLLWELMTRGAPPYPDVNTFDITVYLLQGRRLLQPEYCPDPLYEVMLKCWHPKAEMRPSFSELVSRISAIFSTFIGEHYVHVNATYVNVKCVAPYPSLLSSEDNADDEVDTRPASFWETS
Just the number please, in %, no unit attached.

Use these answered entries as a reference point.
- Molecule: "CCOC(=O)c1cnc(S(C)(=O)=O)nc1N1CCC[C@@H](n2nc(-c3ccc(Oc4ccccc4)cc3)c3c(N)ncnc32)C1"
  U: "%"
  Measured Result: 100
- Molecule: "C=CC(=O)N1CCC[C@@H](n2nc(-c3ccc(Oc4ccccc4)cc3)c3c(N)ncnc32)C1 [Compound 1g, Ibrutinib, reference compound]"
  U: "%"
  Measured Result: 96
- Molecule: "CNC(=O)c1cnc(S(C)(=O)=O)nc1N1CCCC(n2nc(-c3ccc(Oc4ccccc4)cc3)c3c(N)ncnc32)C1 (centres unmarked)"
  U: "%"
  Measured Result: 91
- Molecule: "COC(=O)c1cnc(S(C)(=O)=O)nc1N1CCCC(n2nc(-c3ccc(Oc4ccccc4)cc3)c3c(N)ncnc32)C1 (centres unmarked)"
  U: "%"
  Measured Result: 94

Turning now to a further record.
Requested read-out remaining binding at 1 µM, target or system MET(Y1235D) (Homo sapiens, UniProt P08581, Y1235D), entry Cc1cnc(S(C)(=O)=O)nc1N1CCCC(n2nc(-c3ccc(Oc4ccccc4)cc3)c3c(N)ncnc32)C1 (centres unmarked)
100

* * *

target: EGFR(G719S) (Homo sapiens, UniProt P00533, G719S); construct: purchased Eurofins DiscoverX KINOMEscan (scanTK); assay: KINOMEscan ScanTK; format: binding; conditions: @1000nM, read-out: %Control
Measure Name: remaining binding at 1 µM (%)
Kindly provide the numeric value in % only, without the unit symbol.

Example results:
- Compound: "CCOC(=O)c1cnc(S(C)(=O)=O)nc1N1CCC[C@@H](n2nc(-c3ccc(Oc4ccccc4)cc3)c3c(N)ncnc32)C1"
  Measured Result: 94
- Compound: "Cc1cnc(S(C)(=O)=O)nc1N1CCCC(n2nc(-c3ccc(Oc4ccccc4)cc3)c3c(N)ncnc32)C1 (stereo not shown)"
  Measured Result: 96
- Compound: "COC(=O)c1cnc(S(C)(=O)=O)nc1N1CCCC(n2nc(-c3ccc(Oc4ccccc4)cc3)c3c(N)ncnc32)C1 (stereo not shown)"
  Measured Result: 85

Now for another entry.
Look up remaining binding at 1 µM: CNC(=O)c1cnc(S(C)(=O)=O)nc1N1CCCC(n2nc(-c3ccc(Oc4ccccc4)cc3)c3c(N)ncnc32)C1 (stereo not shown)
78

* * *

target: ALK(C1156Y) (Homo sapiens, UniProt Q9UM73, C1156Y); construct: purchased Eurofins DiscoverX KINOMEscan (scanTK); experiment: KINOMEscan ScanTK; assay type: binding; settings: @1000nM, read-out: %Control
Reported values of remaining binding at 1 µM for individual entries
Report the figure in % without appending any unit label.

- Molecule: "CCOC(=O)c1cnc(S(C)(=O)=O)nc1N1CCC[C@@H](n2nc(-c3ccc(Oc4ccccc4)cc3)c3c(N)ncnc32)C1"
  Measure Name: "remaining binding at 1 µM"
  Measured Result: 90

Query molecule follows.
I would be grateful if you could share the reported remaining binding at 1 µM for C=CC(=O)N1CCC[C@@H](n2nc(-c3ccc(Oc4ccccc4)cc3)c3c(N)ncnc32)C1 [Compound 1g, Ibrutinib, reference compound] .
98

* * *

biological target: BMX (Homo sapiens); construct: purchased Eurofins DiscoverX KINOMEscan (scanTK); test: KINOMEscan ScanTK; type: binding; conditions: read-out: %Control @1000nM
Sequence (P51813 whole entry): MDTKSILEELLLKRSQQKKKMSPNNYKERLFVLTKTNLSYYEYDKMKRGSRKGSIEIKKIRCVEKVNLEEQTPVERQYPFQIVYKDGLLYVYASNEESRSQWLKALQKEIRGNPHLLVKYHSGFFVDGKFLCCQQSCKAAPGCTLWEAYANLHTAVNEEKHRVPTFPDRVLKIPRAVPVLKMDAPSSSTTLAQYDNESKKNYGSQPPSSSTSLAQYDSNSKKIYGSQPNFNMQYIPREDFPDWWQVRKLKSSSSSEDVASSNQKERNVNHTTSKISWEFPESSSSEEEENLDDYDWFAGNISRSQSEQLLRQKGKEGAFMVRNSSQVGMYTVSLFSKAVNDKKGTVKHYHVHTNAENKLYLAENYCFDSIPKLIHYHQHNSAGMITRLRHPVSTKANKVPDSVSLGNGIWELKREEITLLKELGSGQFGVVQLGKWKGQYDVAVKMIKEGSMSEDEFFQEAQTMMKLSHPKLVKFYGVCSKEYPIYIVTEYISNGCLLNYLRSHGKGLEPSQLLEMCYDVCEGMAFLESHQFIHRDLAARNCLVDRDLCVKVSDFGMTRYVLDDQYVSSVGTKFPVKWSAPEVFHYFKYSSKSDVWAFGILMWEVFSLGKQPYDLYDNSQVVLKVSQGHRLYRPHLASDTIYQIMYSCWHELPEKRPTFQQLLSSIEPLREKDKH
Measure Name: remaining binding at 1 µM (%)
Value expressed in %; do not type the unit.

- Compound: "COC(=O)c1cnc(S(C)(=O)=O)nc1N1CCCC(n2nc(-c3ccc(Oc4ccccc4)cc3)c3c(N)ncnc32)C1 (stereo not shown)"
  U: "%"
  Measured Result: 53
- Compound: "CNC(=O)c1cnc(S(C)(=O)=O)nc1N1CCCC(n2nc(-c3ccc(Oc4ccccc4)cc3)c3c(N)ncnc32)C1 (stereo not shown)"
  U: "%"
  Measured Result: 61
- Compound: "Cc1cnc(S(C)(=O)=O)nc1N1CCCC(n2nc(-c3ccc(Oc4ccccc4)cc3)c3c(N)ncnc32)C1 (stereo not shown)"
  U: "%"
  Measured Result: 38

Entry "CCOC(=O)c1cnc(S(C)(=O)=O)nc1N1CCC[C@@H](n2nc(-c3ccc(Oc4ccccc4)cc3)c3c(N)ncnc32)C1" : reported remaining binding at 1 µM = ?
69

* * *

Recorded remaining binding at 1 µM for the following molecules
target: MET(M1250T) (Homo sapiens, UniProt P08581, M1250T); construct: purchased Eurofins DiscoverX KINOMEscan (scanTK); test: KINOMEscan ScanTK; format: binding; details: read-out: %Control @1000nM
Sequence (P08581 25-1390 M1250T): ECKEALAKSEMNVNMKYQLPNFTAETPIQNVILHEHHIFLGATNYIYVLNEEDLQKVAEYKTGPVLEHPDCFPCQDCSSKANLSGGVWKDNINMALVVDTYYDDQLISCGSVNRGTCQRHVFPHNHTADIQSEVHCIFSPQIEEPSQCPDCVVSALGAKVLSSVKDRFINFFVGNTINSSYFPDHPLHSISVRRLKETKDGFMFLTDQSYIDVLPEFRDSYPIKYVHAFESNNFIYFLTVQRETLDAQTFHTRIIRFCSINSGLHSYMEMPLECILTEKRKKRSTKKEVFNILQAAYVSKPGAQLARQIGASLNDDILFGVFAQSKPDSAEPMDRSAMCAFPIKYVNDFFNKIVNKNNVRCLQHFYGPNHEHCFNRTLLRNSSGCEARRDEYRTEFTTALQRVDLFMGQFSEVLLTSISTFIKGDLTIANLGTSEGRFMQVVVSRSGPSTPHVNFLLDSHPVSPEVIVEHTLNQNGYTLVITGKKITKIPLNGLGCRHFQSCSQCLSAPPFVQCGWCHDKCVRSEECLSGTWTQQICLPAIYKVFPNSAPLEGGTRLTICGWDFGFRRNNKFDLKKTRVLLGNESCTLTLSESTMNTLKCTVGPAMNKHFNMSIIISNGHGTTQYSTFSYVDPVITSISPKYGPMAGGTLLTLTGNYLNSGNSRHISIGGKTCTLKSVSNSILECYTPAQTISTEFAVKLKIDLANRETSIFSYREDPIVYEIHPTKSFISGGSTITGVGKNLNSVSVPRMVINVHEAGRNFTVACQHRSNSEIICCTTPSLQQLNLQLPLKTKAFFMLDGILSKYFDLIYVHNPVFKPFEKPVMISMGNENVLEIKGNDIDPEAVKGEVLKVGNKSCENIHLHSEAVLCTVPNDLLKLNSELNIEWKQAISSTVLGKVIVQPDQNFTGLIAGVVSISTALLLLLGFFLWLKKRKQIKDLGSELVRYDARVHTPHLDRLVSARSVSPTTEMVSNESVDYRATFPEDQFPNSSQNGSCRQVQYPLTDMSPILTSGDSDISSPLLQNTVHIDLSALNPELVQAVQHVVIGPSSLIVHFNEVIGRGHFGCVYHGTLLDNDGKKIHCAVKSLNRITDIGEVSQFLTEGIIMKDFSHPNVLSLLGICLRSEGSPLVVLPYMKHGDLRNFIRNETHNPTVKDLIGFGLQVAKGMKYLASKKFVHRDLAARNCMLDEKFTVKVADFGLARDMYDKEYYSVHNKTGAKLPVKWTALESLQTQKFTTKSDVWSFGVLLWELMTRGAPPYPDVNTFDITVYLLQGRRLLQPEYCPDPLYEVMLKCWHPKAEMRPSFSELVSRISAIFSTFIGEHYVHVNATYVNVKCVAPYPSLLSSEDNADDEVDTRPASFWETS
Please format your answer as a value with the unit trailing.

Below, 3 molecules whose answers are already recorded.
- Molecule: "C=CC(=O)N1CCC[C@@H](n2nc(-c3ccc(Oc4ccccc4)cc3)c3c(N)ncnc32)C1 [Compound 1g, Ibrutinib, reference compound]"
  remaining binding at 1 µM: "96%"
- Molecule: "CNC(=O)c1cnc(S(C)(=O)=O)nc1N1CCCC(n2nc(-c3ccc(Oc4ccccc4)cc3)c3c(N)ncnc32)C1 (centres unmarked)"
  remaining binding at 1 µM: "100%"
- Molecule: "CCOC(=O)c1cnc(S(C)(=O)=O)nc1N1CCC[C@@H](n2nc(-c3ccc(Oc4ccccc4)cc3)c3c(N)ncnc32)C1"
  remaining binding at 1 µM: "96%"

Entry Cc1cnc(S(C)(=O)=O)nc1N1CCCC(n2nc(-c3ccc(Oc4ccccc4)cc3)c3c(N)ncnc32)C1 (centres unmarked) has what remaining binding at 1 µM?
88%

Can you share its remaining binding at 1 µM? I mean this molecule: COC(=O)c1cnc(S(C)(=O)=O)nc1N1CCCC(n2nc(-c3ccc(Oc4ccccc4)cc3)c3c(N)ncnc32)C1 (centres unmarked)
96%

* * *

biological target: FYN (Homo sapiens, UniProt P06241); construct: purchased Eurofins DiscoverX KINOMEscan (scanTK); experiment: KINOMEscan ScanTK; assay type: binding; details: @1000nM
Sequence (P06241 whole entry): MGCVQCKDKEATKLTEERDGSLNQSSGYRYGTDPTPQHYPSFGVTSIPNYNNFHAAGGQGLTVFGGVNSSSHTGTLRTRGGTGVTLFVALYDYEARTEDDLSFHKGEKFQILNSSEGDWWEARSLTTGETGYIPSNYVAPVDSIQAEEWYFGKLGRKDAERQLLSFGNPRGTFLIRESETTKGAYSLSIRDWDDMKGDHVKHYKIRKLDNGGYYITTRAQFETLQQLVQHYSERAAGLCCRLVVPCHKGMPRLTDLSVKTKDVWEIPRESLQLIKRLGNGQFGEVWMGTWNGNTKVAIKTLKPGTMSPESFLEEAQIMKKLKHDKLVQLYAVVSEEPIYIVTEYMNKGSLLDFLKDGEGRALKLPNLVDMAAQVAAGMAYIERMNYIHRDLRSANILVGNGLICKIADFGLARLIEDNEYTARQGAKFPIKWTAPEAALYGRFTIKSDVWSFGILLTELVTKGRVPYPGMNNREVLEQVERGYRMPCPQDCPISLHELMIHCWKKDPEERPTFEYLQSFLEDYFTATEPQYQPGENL
Here the recorded difference in % of control versus compound Ib at 1 µM is given for each entry.
Quick reminder: number only, in %, skip the unit.

Consider the following illustrative entries.
- Compound: "Cc1cnc(S(C)(=O)=O)nc1N1CCCC(n2nc(-c3ccc(Oc4ccccc4)cc3)c3c(N)ncnc32)C1 (stereo not shown)"
  Measured Result: 7.4
- Compound: "CNC(=O)c1cnc(S(C)(=O)=O)nc1N1CCCC(n2nc(-c3ccc(Oc4ccccc4)cc3)c3c(N)ncnc32)C1 (stereo not shown)"
  Measured Result: 5.4
- Compound: "CCOC(=O)c1cnc(S(C)(=O)=O)nc1N1CCC[C@@H](n2nc(-c3ccc(Oc4ccccc4)cc3)c3c(N)ncnc32)C1"
  Measured Result: 30.4

Returns the measured difference in % of control versus compound Ib at 1 µM for the input compound. Input: COC(=O)c1cnc(S(C)(=O)=O)nc1N1CCCC(n2nc(-c3ccc(Oc4ccccc4)cc3)c3c(N)ncnc32)C1 (stereo not shown)
16.4

* * *

Target: EPHA1 (Homo sapiens, UniProt P21709)
Construct: purchased Eurofins DiscoverX KINOMEscan (scanTK)
Sequence (P21709 26-976): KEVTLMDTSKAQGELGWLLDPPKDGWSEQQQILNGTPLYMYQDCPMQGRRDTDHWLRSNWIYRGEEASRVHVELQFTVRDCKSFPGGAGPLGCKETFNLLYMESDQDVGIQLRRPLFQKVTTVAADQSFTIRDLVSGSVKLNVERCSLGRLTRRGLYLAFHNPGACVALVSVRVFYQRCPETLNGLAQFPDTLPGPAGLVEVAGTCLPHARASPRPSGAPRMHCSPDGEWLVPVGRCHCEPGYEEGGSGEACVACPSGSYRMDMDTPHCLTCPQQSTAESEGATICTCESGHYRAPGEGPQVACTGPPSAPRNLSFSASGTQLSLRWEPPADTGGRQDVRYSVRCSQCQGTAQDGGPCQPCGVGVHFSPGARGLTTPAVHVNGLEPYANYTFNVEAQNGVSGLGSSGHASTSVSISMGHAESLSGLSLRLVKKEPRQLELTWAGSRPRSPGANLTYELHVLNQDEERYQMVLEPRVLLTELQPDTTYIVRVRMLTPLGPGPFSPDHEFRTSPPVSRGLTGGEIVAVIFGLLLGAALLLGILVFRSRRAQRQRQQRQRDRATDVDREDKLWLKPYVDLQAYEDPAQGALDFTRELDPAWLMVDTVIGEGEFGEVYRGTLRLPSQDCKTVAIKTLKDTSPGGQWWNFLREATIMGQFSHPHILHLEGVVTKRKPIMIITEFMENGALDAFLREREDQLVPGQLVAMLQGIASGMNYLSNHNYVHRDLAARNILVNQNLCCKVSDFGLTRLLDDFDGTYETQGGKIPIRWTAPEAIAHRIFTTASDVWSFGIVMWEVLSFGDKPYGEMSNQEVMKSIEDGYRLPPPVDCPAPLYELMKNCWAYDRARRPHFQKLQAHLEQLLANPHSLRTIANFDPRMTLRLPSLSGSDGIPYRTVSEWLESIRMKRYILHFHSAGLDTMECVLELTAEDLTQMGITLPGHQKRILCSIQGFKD
Experiment: KINOMEscan ScanTK
Format: binding
Settings: @1000nM
Quick list: difference in %Control versus compound Ib at 1 µM per entry.

Recorded difference in %Control versus compound Ib at 1 µM, per entry:
- Compound: "COC(=O)c1cnc(S(C)(=O)=O)nc1N1CCCC(n2nc(-c3ccc(Oc4ccccc4)cc3)c3c(N)ncnc32)C1 (stereo not shown)"
  Measured Result: "-16%"
- Compound: "Cc1cnc(S(C)(=O)=O)nc1N1CCCC(n2nc(-c3ccc(Oc4ccccc4)cc3)c3c(N)ncnc32)C1 (stereo not shown)"
  Measured Result: "9%"
- Compound: "CNC(=O)c1cnc(S(C)(=O)=O)nc1N1CCCC(n2nc(-c3ccc(Oc4ccccc4)cc3)c3c(N)ncnc32)C1 (stereo not shown)"
  Measured Result: "-6%"

Consider the additional compound presented here.
Recorded difference in %Control versus compound Ib at 1 µM of "CCOC(=O)c1cnc(S(C)(=O)=O)nc1N1CCC[C@@H](n2nc(-c3ccc(Oc4ccccc4)cc3)c3c(N)ncnc32)C1" , please.
20%
